- System: Vero E6 infected with SARS-CoV-2
- assay_remarks: inhibition of SARS-CoV-2 cytopathic effect; higher = more antiviral protection, active = above 15
- test_parameters: 100 nM; 48 h
# inhibition of SARS-CoV-2 cytopathic effect values compiled below
// return numeric value only (unit: %, not printed)

Example results:
Nc1c2c(nc3c1CCC3)CCCC2 :: 1.19
CCN(CC)CCCC(C)Nc1nc(C)cc(Nc2ccc3nc(C)cc(N)c3c2)n1 (centres undefined) :: 1.43
Cc1cccc(OCC(O)CNC(C)(C)C)c1C (centres undefined) :: -0.78

Please turn your attention to the following entry.
Qu. May I ask what inhibition of SARS-CoV-2 cytopathic effect has been recorded for `Cc1cn([C@H]2C[C@H](N=[N+]=[N-])[C@@H](CO)O2)c(=O)[nH]c1=O` ?
Ans. 6.14

---

- Test system: Vero E6 infected with SARS-CoV-2
- assay_remarks: inhibition of SARS-CoV-2 cytopathic effect; higher = more antiviral protection, active = above 15
- test_parameters: 833.33 nM; 48 h
Counter-ions that a name gives are not always drawn.
# inhibition of SARS-CoV-2 cytopathic effect values compiled below

Example results:
O=C(O)c1ccc(CN2CCC(CN[C@@H]3C[C@H]3c3ccccc3)CC2)cc1 :: 3.6% (inactive)
C=C[C@H]1CN2CC[C@H]1CC2C(OC(=O)OCC)c1ccnc2ccc(OC)cc12 (stereo in doubt) [quinine-ethyl-carbonate] :: 6.66% (inactive)
O=C(CC(c1ccccc1)c1ccccc1)N1CCN(C(c2ccccc2)c2ccccc2)CC1 :: 1.53% (inactive)
CN[C@@H]1[C@H](O[C@H]2[C@H](O[C@H]3[C@H](O)[C@@H](O)[C@H](N=C(N)N)[C@@H](O)[C@@H]3N=C(N)N)O[C@@H](C)[C@]2(O)C=O)O[C@@H](CO)[C@H](O)[C@H]1O [STREPTOMYCIN SULFATE [5mM; 10% aq DMSO + 5mM ethanolamine]] :: 1.53% (inactive)

Qu. Request body: readout inhibition of SARS-CoV-2 cytopathic effect, system Vero E6 infected with SARS-CoV-2, query N#Cc1ccccc1-c1cc(-c2ccccn2)cn(-c2ccccc2)c1=O [Perampanel] . Return the value.
Ans. -0.14% (inactive)

Qu. Request body: readout inhibition of SARS-CoV-2 cytopathic effect, system Vero E6 infected with SARS-CoV-2, query NC(=O)C[C@H](N)C(=O)O [L-asparagine] . Return the value.
Ans. -1.45% (inactive)

Qu. Request body: readout inhibition of SARS-CoV-2 cytopathic effect, system Vero E6 infected with SARS-CoV-2, query CCCc1c(OCCCCc2nnn[nH]2)ccc(C(C)=O)c1O [tomelukast] . Return the value.
Ans. -8.13% (inactive)

Qu. Request body: readout inhibition of SARS-CoV-2 cytopathic effect, system Vero E6 infected with SARS-CoV-2, query `Cc1cc(F)c(Nc2ncnc3cc(OCc4ccccc4)ccc23)cc1O` . Return the value.
Ans. -2.03% (inactive)

Qu. Request body: readout inhibition of SARS-CoV-2 cytopathic effect, system Vero E6 infected with SARS-CoV-2, query `c1ccc2c(c1)CCC[C@H]2Nc1nc2ccccc2[nH]1` . Return the value.
Ans. -1.92% (inactive)

---

# morphology score values compiled below
- Test system: Vero E6 infected with SARS-CoV-2
- assay_remarks: morphology score (similarity to uninfected cells); higher = more like uninfected cells
- test_parameters: 24 h
Answer field: number only, no words.

Example results:
CCCCc1nc(Cl)c(C(=O)O)n1Cc1ccc(-c2ccccc2-c2nn[nH]n2)cc1 [carboxylosartan] (10 µM) :: -0.00666
C=C(C)[C@H]1CN[C@H](C(=O)O)[C@H]1CC(=O)O [kainic-acid] (10 µM) :: 0.338
CCN(C)C(=O)Oc1cccc([C@H](C)N(C)C)c1 [rivastigmine] (10 µM) :: 0.136

Please turn your attention to the following entry.
Qu. May I ask what morphology score has been recorded for COc1ccc(C(=O)NCc2cccnc2)cc1C(=O)NCc1cccnc1 [picotamide] (10 µM) ?
Ans. -0.08

---

- Test system: Vero E6 infected with SARS-CoV-2
- assay_remarks: morphology score (similarity to uninfected cells); higher = more like uninfected cells
- test_parameters: 24 h
Parameter class (string): assigned from measured morphology score. Ranges: lower = under -0.02, middle = from -0.02 up to 0.07, upper = 0.07 and over

Consider the following illustrative entries.
c1ccc(C(NCCNC(c2ccccc2)c2ccccc2)c2ccccc2)cc1 (10 µM) :: upper
CCn1c(-c2nonc2N)nc2cnc(Oc3cccc(NC(=O)c4ccc(OCCN5CCOCC5)cc4)c3)cc21 (10 µM) :: upper

Qu. Form: Item = C=CC(=O)Nc1cccc(Nc2nc(Nc3ccc(OCCOC)cc3)ncc2F)c1 (0.833333 µM) ; Class = ?
Ans. lower

Qu. Form: Item = Clc1ccc2c(NCCNc3ccnc4cc(Cl)ccc34)ccnc2c1 (10 µM) ; Class = ?
Ans. upper

Qu. Form: Item = NC1=N[C@@](c2cccc(-c3cncnc3)c2)(c2ccnc(C(F)F)c2)c2cccc(F)c21 (10 µM) ; Class = ?
Ans. upper

Qu. Form: Item = c1ccc2c(c1)sc1ccccc12 [dibenzothiophene] (10 µM) ; Class = ?
Ans. middle

Qu. Form: Item = Cc1oc(=O)oc1CN1CCN(c2cc3c(cc2F)c(=O)c(C(=O)O)c2n3C(C)S2)CC1 (centres undefined) [prulifloxacin] (10 µM) ; Class = ?
Ans. upper

Qu. Form: Item = CCCCN(CCCC)C(=O)CN1C[C@H](c2ccc3c(c2)OCO3)[C@@H](C(=O)O)[C@@H]1c1ccc(OC)cc1 [atrasentan] (10 µM) ; Class = ?
Ans. middle

Qu. Form: Item = CCOC(=O)[C@@H](N)Cc1ccc(O)c(O)c1 [etilevodopa] (10 µM) ; Class = ?
Ans. lower

Qu. Form: Item = Clc1ccccc1CN1CCc2sccc2C1 [ticlopidine] (10 µM) ; Class = ?
Ans. upper

Qu. Form: Item = O=C(Nc1cnn2ccc(N3CCC[C@@H]3c3cc(F)ccc3F)nc12)N1CC[C@H](O)C1 [larotrectinib] (10 µM) ; Class = ?
Ans. lower

Qu. Form: Item = O=C(Nc1ccccc1)c1ccccc1O [salicylanilide] (10 µM) ; Class = ?
Ans. lower

Qu. Form: Item = COc1cc2c(cc1OC)CN(C(=O)[C@@H](NCc1ccncc1)C(C)(C)C)CC2 (10 µM) ; Class = ?
Ans. lower

Qu. Form: Item = Cc1cccc(C(C)c2c[nH]cn2)c1C (centres undefined) [medetomidine] (10 µM) ; Class = ?
Ans. lower

Qu. Form: Item = CCOc1cc2ncc(C#N)c(Nc3ccc(OCc4cccc(F)c4)c(Cl)c3)c2cc1NC(=O)/C=C/CN(C)C (10 µM) ; Class = ?
Ans. lower

Qu. Form: Item = CC(=N)NCc1cccc(CN)c1 (10 µM) ; Class = ?
Ans. lower

---

- System: Vero E6 infected with SARS-CoV-2
- assay_remarks: morphology score (similarity to uninfected cells); higher = more like uninfected cells
- test_parameters: 24 h
So basically: morphology score at 0.05 or higher? That is class 1. Lower than 0.05? That is class 0.

Consider the following illustrative entries.
C[C@@H]1NC(C)(C)CO[C@@]1(O)c1cccc(Cl)c1 [radafaxine] (10 µM) :: class 0
OC[C@H]1O[C@@H](n2cnc3c(N[C@H]4CCC[C@@H]4O)ncnc32)[C@H](O)[C@@H]1O (10 µM) :: class 1
C[C@H](Nc1ncnc2[nH]cnc12)c1cc2ccc(F)cc2nc1-c1ccccn1 (10 µM) :: class 1
O=C1C[C@@H]2OCC=C3CN4CC[C@]56c7ccccc7N1[C@H]5[C@H]2[C@H]3C[C@H]46 [strychnine] (10 µM) :: class 1
Cn1c(=O)c2[nH]c(Br)nc2n(C)c1=O [pamabrom] (10 µM) :: class 1

Qu. Quick check: does CC(C)[C@H](CO)Nc1nc(Nc2cccc(Cl)c2)c2ncn(C(C)C)c2n1 [purvalanol-A] (0.833333 µM) have morphology score greater than or equal to 0.05?
Ans. class 0

Qu. Quick check: does CC(C)/N=c1\cc2n(-c3ccc(Cl)cc3)c3ccccc3nc-2cc1Nc1ccc(Cl)cc1 [clofazimine] (10 µM) have morphology score greater than or equal to 0.05?
Ans. class 1

Qu. Quick check: does Cc1ccc(/N=C/N(C)/C=N/c2ccc(C)cc2C)c(C)c1 [amitraz] (10 µM) have morphology score greater than or equal to 0.05?
Ans. class 1

Qu. Quick check: does Cc1cccc(/C=N/Nc2cc(N3CCOCC3)n3nc(-c4ccncc4)cc3n2)c1 (10 µM) have morphology score greater than or equal to 0.05?
Ans. class 1

Qu. Quick check: does CN(C)CCN1C(=O)c2cccc3cc(N)cc(c23)C1=O [amonafide] (0.833333 µM) have morphology score greater than or equal to 0.05?
Ans. class 1

Qu. Quick check: does COc1ccc(/C=C/C(=O)/C=C(O)/C=C/c2ccc(OC)c(OC)c2)cc1OC (10 µM) have morphology score greater than or equal to 0.05?
Ans. class 1

Qu. Quick check: does COc1cc(F)c(C(C)C)cc1-c1ccc(C(F)(F)F)cc1CN1C(=O)O[C@H](c2cc(C(F)(F)F)cc(C(F)(F)F)c2)[C@@H]1C [anacetrapib] (10 µM) have morphology score greater than or equal to 0.05?
Ans. class 1
